- protocol.text: amyloid nucleation score (Sup35N fusion, yeast selection) (log enrichment); library NNK2; higher = more nucleation; inactive = no reads after selection;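 note: zero at mode of non-aggregating sequences after 7 days selection at 30°C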
Overview of reported amyloid nucleation score across a group of substances:

{"columns": ["substance", "amyloid nucleation score"],
 "data": [
  ["SVNNHGRLYVWLERLSYTTF", 2.24],
  ["TPDAGMWNYECYIVTVW", -0.615],
  ["LKRNMWFLYRGTFARSYYAN", -1.03],
  ["FVPAVEFVHHFAVWVWRE", 0.072],
  ["RVPGPVHSSCYTAARFFCPM", 1.83],
  ["ITRSGWDFYLS", 0.687],
  ["STSIAVANHWVSYFFVSSGL", 9],
  ["QTGQGYIVQGTVNSMKGCFR", -0.038],
  ["RALVYVWACSVLLDNCTSRH", -0.935],
  ["SGYWNGVIRTKSNNDTVYVK", -0.395],
  ["LCSRFALWVRKF", -0.291],
  ["LWFYFFRDYLIGPMWNKIVI", -0.898],
  ["KSVTDSL", 0.878],
  ["VCACLNMTCVFFILTGNGVK", 7.59],
  ["TFLWLLLY", 6.75],
  ["THLLIIDIVKYRKHIL", 0.255],
  ["TVMTFEYSEHVFRDMDT", -0.501],
  ["VGIGVAERCDSRWLL", 0.886],
  ["ILLVYTLHRCLSSRVNEYQM", 4.22],
  ["TRVDDLIR", -0.191],
  ["FLTLPVSPSTQFISDRGSAL", 2.64],
  ["TCGYGLSWLSGSPSMIMWMW", 0.009],
  ["LFACFRNMLV", 0.504],
  ["VSENDGVRACCLS", 0.474],
  ["ICCGVEHWYVIGFNVGSFYF", 7.96],
  ["LNGGKLWNHRDLWDRTGQVY", -0.266],
  ["YCERAHALICSLRQVGWVPR", 0.719],
  ["CHRAKTVVGNRVNRGDWDNP", -0.434],
  ["ITACCRSR", 3.02],
  ["MDGVHFVRYQM", 0.181],
  ["MWTIIMGMVILPRNRNL", 3.8],
  ["QWRINSRLFG", -0.266],
  ["NILVTRNNKHTSFCYTSLLL", 2.22],
  ["LSFFGRDDLNRLHN", -1.41],
  ["TFKVVSKDNI", -0.317],
  ["VRSVLVRKGTWARCTRMVAM", 1.05],
  ["LYIALIFSISHGWCIAFRLT", -0.214],
  ["GIRVLRTRYSLELCMRCLLW", 0.126],
  ["MFWSTSYRNNFWTPIWEKLG", -0.597],
  ["VVWEYIRYRCCTYDAVYTRS", 0.522],
  ["PYSVMTFEIT", 0.486],
  ["ICFGGTLSWSCVVAILNLSN", 5.62],
  ["YDDKLHRPDDFGCRDHSPGM", 0.495],
  ["VISASSVAP", 0.557],
  ["VSRMLSVMSMTTRMFLPYTS", 0.152],
  ["HGKRFYAECLIVFPIDKRGA", 0.098],
  ["WMTRIFTINVGNWWGFMHSR", 3.02],
  ["QEQDKSRELKCGGKLYVYEG", 1.04],
  ["RANKYVASRFVITFKVACFE", 0.092],
  ["TTHCRLYMYVWWMYVVIFFD", 2.11],
  ["NWDNSNLVFLYNSGLGNYVS", -0.874],
  ["CVMFTLSCVNFDCDCSCRWK", 6.31],
  ["QLFTWILVAPKLPCWF", 6.36],
  ["TIHSSPTVGLGNIWFVTNSH", 6.87],
  ["YWVLQNYHLYCLYKSKSRNW", -0.403],
  ["EEKEVDVEVGRETHMSARDN", 0.563],
  ["QWTHERSEPWHCSDVRSFIE", 5.76],
  ["VNYRNLMKESLCILRQTYTL", 0.031],
  ["CCFTGIKGSYCFSWLACG", -0.082],
  ["VLLHCRSICGTRLALPLTGR", 1.57],
  ["KRLVGVTAMMCSFFLYLFLE", 0.859],
  ["RTYEMKAMRVASWQSS", 1.9]
]}

###

Overview of reported amyloid nucleation score across a group of sequences:
- protocol.text: amyloid nucleation score (Sup35N fusion, yeast selection) (log enrichment); library NNK2; higher = more nucleation; inactive = no reads after selection

{"columns": ["primary.sequence", "amyloid nucleation score"],
 "data": [
  ["VVLRELRIYIMNVWDPRGTL", -0.998],
  ["NFIDRQLSILYMMFLITEC", -0.774],
  ["LWFITCNMSGHWLLTERR", 4.39],
  ["TFSLAVVYRFDDAFTLRVGD", 6.13],
  ["YRVAMYMDSVFIMYAYDIPN", 2.1],
  ["SSRHNPIWLRTAMDGDLGFA", 0.864],
  ["MYMARCKASTVSDYQNS", -0.393]
]}

###

- protocol.text: amyloid nucleation score (Sup35N fusion, yeast selection) (log enrichment); library NNK2; higher = more nucleation; inactive = no reads after selection

{"columns": ["substance", "amyloid nucleation score"],
 "data": [
  ["YEVREFSCHGINIKMEGIYC", 1.48],
  ["RPSSWVVRCE", 0.223],
  ["LSINLSDMNFVVHSCLGSLG", 5.45],
  ["NSVCSTLKHLSNLGSIDIQH", -0.363],
  ["ILNCVMYLICKYVFII", 2.16],
  ["RGVKDRKRQVQFEKSSRSMA", 0.361],
  ["TIKLYRNMWEQLVQTEPSRT", 0.045],
  ["RRRTEGN", 0.304],
  ["GRVFIASLIARTDPPKLVFK", 1.67],
  ["TWMSYFVHVSVGFLVYYLYI", -0.919],
  ["KAKYTTILCCIDRCGCIGQY", 8.61],
  ["FFSSTMNCVSLKRVKL", -0.432],
  ["YVVVLNWNSHCSKYYELRQE", 8.4],
  ["SVEFVLMRLGQLT", 4.18],
  ["TNSGMWGKLSACFYFVMQYL", -0.936],
  ["RSSKTNWWTGEISVPYGYWM", 0.368],
  ["TDNHFVTRCTYVAFQLTYKV", -0.375],
  ["VKRYDS", "inactive"],
  ["NCFDKMHKIWLFLLSLSIFC", "inactive"],
  ["FLVMGLRYS", 5.41],
  ["RNESHVNLLGFMLDRRPDRG", 4.37],
  ["QTTDNFIVKHALCNVA", -0.622],
  ["VSTWTYSHRAPRG", 1.52],
  ["GGFDYCFIMYHRNELDSGLG", -0.646],
  ["IDLMKLCFLLYSIGFFLPTH", "inactive"],
  ["RDALCVHWVAYIGNKHGWVA", 0.965],
  ["PFGHFQLLINSKTGMRSVMT", -0.463],
  ["CYHVTLMR", 0.718],
  ["RYAINCVEAYGLC", -0.387],
  ["SARHDSRVYNWGLFMKYDVN", 4.12],
  ["FNNVILSRV", -1.5],
  ["MCPNGPAVIGMLFRLHTLFK", 0.168],
  ["TFGCEPVGPVA", 0.409],
  ["ITSFKWVLKGSWCKGRESKF", 4.87],
  ["PNALQGSRDVCTLKRLASEA", 0.238],
  ["NARWKDVYHPLTYCFVNLWT", 8.12]
]}

###

- protocol.text: amyloid nucleation score (Sup35N fusion, yeast selection) (log enrichment); library NNK2; higher = more nucleation; inactive = no reads after selection
Tag: condition met if measured amyloid nucleation score is not below 0.2, condition not met if it is.

{"columns": ["substance", "category.label"],
 "data": [
  ["MDVGYCRNAVHRMLGMNCMM", "condition met"],
  ["FVHKSCSAALTTLGTVAD", "condition met"],
  ["GMICKWAWVSTGGKGVKCRE", "condition met"],
  ["PAVDRIFSRLCTYSGQFIPQ", "condition met"],
  ["VEFILKVGYAFTATCPCGFW", "condition not met"],
  ["ADRSVGGFNCVSFLYAVN", "condition met"],
  ["ACSQLSYWTFHSPWP", "condition met"],
  ["MIPKVFSIRKSVGIYWNAEY", "condition not met"],
  ["FCSVCDRL", "condition not met"],
  ["SYGLLKYGI", "condition not met"],
  ["GTAYAHFFEVNFTSKLLAEF", "condition met"],
  ["WHDNSSNGTGEGNFVRPVPV", "condition met"],
  ["QIFTKRVRTNLPFQFSNYVG", "condition met"],
  ["LSYVFIVECPSSAGMLPRPF", "condition met"],
  ["MWGIRSYLVKVL", "condition not met"],
  ["IDDDHLEHEVNGSRRCKMRW", "condition not met"],
  ["SKTLAGIWSDGVHAEFDIKG", "condition not met"],
  ["FQDTLDLRRLRYWCYPKLGL", "condition not met"],
  ["CSCHKSSCLRTTFCLEHSSG", "condition met"],
  ["FGSVRASGISDFGRMDHGTG", "condition not met"],
  ["MFEIIPFPTSISDRGSTIYM", "condition not met"],
  ["IDSSGEYIVLRGYMYMRFRL", "condition not met"],
  ["LDDPCSHYILGSGHDHVLRR", "condition met"],
  ["RELKCQCLERVLLRVRQCAM", "condition met"],
  ["MYEAAGSDREVLRKYEHSSV", "condition not met"],
  ["GGTIYTLL", "condition not met"],
  ["LTSCGLVWCSIRRPGMKALV", "condition not met"],
  ["VRTTYYNELETFLVLTPAMR", "condition met"],
  ["LIKVVVMS", "condition met"],
  ["PSVACGERCKPMCKVTLSPC", "condition met"],
  ["LLLSFTCLRHTGWFFIRRCC", "condition not met"],
  ["QYPDSCS", "condition not met"]
]}
